// provenance: the NIST ThermoML archive (doi:10.1016/j.tca.2012.01.013)

List of mass density values.
Details: 288.15 K; 101 kPa; Liquid; Vibrating tube method
// units = kg/m3; emit number, no label

Q: Query: mass density; subject: CCC(C)=O
Result: 810.133

Q: Look up mass density for this compound: CCCCO
Result: 813.373

Q: Recorded mass density of CCC(C)O (stereo not given) , please.
Result: 810.689

Q: For the compound COC(=O)c1ccccc1C(=O)OC [dimethyl 1,2-benzenedicarboxylate] , what mass density is on record?
Result: 1196.26

Q: Any idea what mass density was measured for COC(=O)CCCCC(=O)OC [dimethyl 1,6-hexanedioate] ?
Result: 1066.79

###

Settings: 298.15 K; 101 kPa; Liquid; Vibrating tube method
# key: entry, value: mass density
Give a bare numeral; the unit kg/m3 is implied.

Sample answers from the record:
[[record]]
compound = "COC(=O)CCCCC(=O)OC [dimethyl 1,6-hexanedioate]"
recorded_measurement = 1057.06

[[record]]
compound = "CCC(C)=O [butanone]"
recorded_measurement = 799.695

[[record]]
compound = "COC(=O)c1ccccc1C(=O)OC [dimethyl 1,2-benzenedicarboxylate]"
recorded_measurement = 1186.93


Q: Query (compound): CCC(C)O (stereo not given) [butan-2-ol] ; field requested: mass density
Result: 802.528

Q: What value of mass density has been recorded for this entry: CCCCO [butan-1-ol]
Result: 805.762

###

Details: 318.15 K; 101 kPa; Liquid; Vibrating tube method
Tick Satisfied if mass density is 1000 kg/m3 or greater. Tick Not satisfied if mass density is less than 1000 kg/m3.

Field: example entries. Status: answers known.
[[record]]
compound = "CCC(C)O (stereo not given) [butan-2-ol]"
label_class = "Not satisfied"

[[record]]
compound = "CCC(C)=O [butanone]"
label_class = "Not satisfied"

[[record]]
compound = "COC(=O)CCCCC(=O)OC [dimethyl 1,6-hexanedioate]"
label_class = "Satisfied"

[[record]]
compound = "CCCCO [butan-1-ol]"
label_class = "Not satisfied"


Q: Determine whether measured mass density meets or exceeds 1000 kg/m3 for COC(=O)c1ccccc1C(=O)OC [dimethyl 1,2-benzenedicarboxylate]
Result: Satisfied

###

Recorded mass density values for a group of compounds are listed next.
Details: 313.15 K; 101 kPa; Liquid; Vibrating tube method
A number alone suffices; assume kg/m3.

Worked examples, 4 compounds total:
[[record]]
compound = "CCC(C)O (stereo not given)"
output_unit = "kg/m3"
recorded_measurement = 789.632

[[record]]
compound = "CCC(C)=O"
output_unit = "kg/m3"
recorded_measurement = 783.814

[[record]]
compound = "COC(=O)CCCCC(=O)OC [dimethyl 1,6-hexanedioate]"
output_unit = "kg/m3"
recorded_measurement = 1042.43

[[record]]
compound = "COC(=O)c1ccccc1C(=O)OC [dimethyl 1,2-benzenedicarboxylate]"
output_unit = "kg/m3"
recorded_measurement = 1172.97


Q: Which value of mass density has been reported for CCCCO in the records?
Result: 794.147

###

Details: 308.15 K; 101 kPa; Liquid; Vibrating tube method
Exam item: assign Condition met to entries whose mass density is below 1000 kg/m3 and Condition not met to entries at or above 1000 kg/m3. Note that a value of exactly 1000 kg/m3 receives Condition not met.

// below: answered compounds
[[record]]
compound = "CCCCO [butan-1-ol]"
label_class = "Condition met"

[[record]]
compound = "CCC(C)=O [butanone]"
label_class = "Condition met"

[[record]]
compound = "COC(=O)c1ccccc1C(=O)OC [dimethyl 1,2-benzenedicarboxylate]"
label_class = "Condition not met"


Q: Strictly below 1000 kg/m3 in mass density? CCC(C)O (stereo not given) [butan-2-ol]
Result: Condition met

Q: Field: below-cutoff. Rule: recorded mass density strictly less than 1000 kg/m3. Subject: COC(=O)CCCCC(=O)OC [dimethyl 1,6-hexanedioate]
Result: Condition not met
